Value source: ChEMBL document CHEMBL4834433

assay: Microsomal stability in human liver microsomes assessed as parent compound remaining at […] measured after 10 mins; format: ADME; details: read-out: Stabilty
assay_metric: remaining at 10 min

Requested read-out: remaining at 10 min. Entry: Cn1c(=O)[nH]c2c(Cl)cc3c(c21)CN(CC(F)(F)F)C(=O)[C@H](CC(=O)N1CCC(N2CCc4ncccc4NC2=O)CC1)C3
73%

Okay, and O=C(C[C@@H]1Cc2cc(Cl)c3[nH]c(=O)n(CC(F)(F)F)c3c2CN(CC(F)(F)F)C1=O)N1CCC(N2CCc3ccccc3NC2=O)CC1 ?
58%

And for Cn1c(=O)[nH]c2c(Cl)cc3c(c21)CN(CC(F)(F)F)C(=O)[C@H](CC(=O)N1CCC(N2CCc4ccccc4NC2=O)CC1)C3 ?
36%

Please answer likewise for O=C(C[C@@H]1Cc2cc(Cl)c3[nH]c(=O)oc3c2CN(CC(F)(F)F)C1=O)N1CCC(n2c(=O)[nH]c3ncccc32)CC1
49%

Next record, please: O=C(C[C@@H]1Cc2cc(Cl)c3[nH]c(=O)[nH]c3c2CN(CC(F)(F)F)C1=O)N1CCC(N2CCc3ccccc3NC2=O)CC1
60%

How about this molecule: CCn1c(=O)[nH]c2c(Cl)cc3c(c21)CN(CC(F)(F)F)C(=O)[C@H](CC(=O)N1CCC(N2CCc4ccccc4NC2=O)CC1)C3
44%

Would you kindly repeat that for N#Cc1c[nH]c2c(Cl)cc3c(c12)CN(CC(F)(F)F)C(=O)[C@H](CC(=O)N1CCC(N2CCc4ccccc4NC2=O)CC1)C3 ?
38%

====

test: Solubility in phosphate buffer at pH 7 using amorphous form of sample; type: physicochemical
assay_metric: solubility

Look up solubility: O=C(C[C@@H]1Cc2cc(Cl)c3c(c2CN(CC(F)(F)F)C1=O)C(F)(F)C(=O)N3)N1CCC(n2c(=O)[nH]c3ncccc32)CC1
15 µg/mL

Can you handle Cn1c(=O)[nH]c2c(Cl)cc3c(c21)CN(CC(F)(F)F)C(=O)[C@H](CC(=O)N1CCC(N2CCc4ccccc4NC2=O)CC1)C3 next?
< 1 µg/mL

And then O=C(C[C@@H]1Cc2cc(Cl)c3[nH]c(=O)n(CC(F)(F)F)c3c2CN(CC(F)(F)F)C1=O)N1CCC(n2c(=O)[nH]c3ncccc32)CC1 , what is it?
< 1 µg/mL

Continue with O=C(C[C@@H]1Cc2cc(Cl)c3[nH]c(=O)n(CC(F)(F)F)c3c2CN(CC(F)(F)F)C1=O)N1CCC(N2CCc3ccccc3NC2=O)CC1
< 1 µg/mL

====

Give measured Papp A→B for each item. Keep answers brief.
experiment: Permeability form apical to basolateral side in human Caco2 cells; format: ADME, cell-based; details: Caco-2, read-out: permeability

What does the record list as Papp A→B for O=C(C[C@@H]1Cc2cc(Cl)c3[nH]c(=O)n(CC(F)(F)F)c3c2CN(CC(F)(F)F)C1=O)N1CCC(N2CCc3ccccc3NC2=O)CC1 ?
< 1.5 ×10⁻⁶ cm/s

Subsequent entry: O=C(C[C@@H]1Cc2cc(Cl)c3c(c2CN(CC(F)(F)F)C1=O)C(F)(F)C(=O)N3)N1CCC(n2c(=O)[nH]c3ncccc32)CC1
< 1.5 ×10⁻⁶ cm/s

Entry to check: O=C(C[C@@H]1Cc2cc(Cl)c3[nH]c(=O)n(CC(F)(F)F)c3c2CN(CC(F)(F)F)C1=O)N1CCC(n2c(=O)[nH]c3ncccc32)CC1
< 1.5 ×10⁻⁶ cm/s

How about Cn1c(=O)[nH]c2c(Cl)cc3c(c21)CN(CC(F)(F)F)C(=O)[C@H](CC(=O)N1CCC(N2CCc4ccccc4NC2=O)CC1)C3 ?
< 1.5 ×10⁻⁶ cm/s

====

Hi there, I'd appreciate the recorded pIC50 for every entry that follows.
molecular target: Calcitonin gene-related peptide type 1 receptor (Homo sapiens, UniProt O60894+Q16602); test: Antagonist activity against human CGRP receptor in human SK-N-MC cells assessed as inhibition of CGRP-stimulated cAMP production
Sequence (Q16602 whole entry, one chain of several): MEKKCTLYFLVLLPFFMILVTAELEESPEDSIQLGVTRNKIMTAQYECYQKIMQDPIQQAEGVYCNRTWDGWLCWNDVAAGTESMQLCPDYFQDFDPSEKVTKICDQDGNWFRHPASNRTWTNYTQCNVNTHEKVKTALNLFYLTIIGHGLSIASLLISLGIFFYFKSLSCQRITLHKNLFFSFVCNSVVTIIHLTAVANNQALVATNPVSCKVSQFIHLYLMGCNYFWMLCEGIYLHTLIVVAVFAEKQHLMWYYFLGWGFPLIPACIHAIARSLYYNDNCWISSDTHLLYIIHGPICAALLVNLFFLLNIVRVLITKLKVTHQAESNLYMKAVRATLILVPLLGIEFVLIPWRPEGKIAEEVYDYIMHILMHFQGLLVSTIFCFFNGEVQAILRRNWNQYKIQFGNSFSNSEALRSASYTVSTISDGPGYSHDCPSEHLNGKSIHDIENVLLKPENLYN
Quick note: pIC50 means taking -log10 of the concentration in moles per liter.

Consider the compound CCn1c(=O)[nH]c2c(Cl)cc3c(c21)CN(CC(F)(F)F)C(=O)[C@H](CC(=O)N1CCC(N2CCc4ccccc4NC2=O)CC1)C3 and give its measured pIC50.
10.05

Next record, please: O=C(C[C@@H]1Cc2cc(Cl)c3[nH]c(=O)n(CC(F)(F)F)c3c2CN(CC(F)(F)F)C1=O)N1CCC(N2CCc3ccccc3NC2=O)CC1
9.92

What do you have for Cn1c(=O)[nH]c2c(Cl)cc3c(c21)CN(CC(F)(F)F)C(=O)[C@H](CC(=O)N1CCC(N2CCc4ccccc4NC2=O)CC1)C3 ?
10.22

====

assay: Microsomal stability in rat microsomes assessed as parent compound remaining at […] measured after 10 mins; assay type: ADME, Microsome; conditions: read-out: Stabilty
assay_metric: remaining at 10 min (%)
Express the result in % but write the number alone.

State the recorded remaining at 10 min for this entry: N#Cc1c[nH]c2c(Cl)cc3c(c12)CN(CC(F)(F)F)C(=O)[C@H](CC(=O)N1CCC(n2c(=O)[nH]c4ncccc42)CC1)C3
40

Same question, O=C(C[C@@H]1Cc2cc(Cl)c3c(c2CN(CC(F)(F)F)C1=O)C(F)(F)C(=O)N3)N1CCC(N2CCc3ccccc3NC2=O)CC1 this time
35

What do we get for CCn1c(=O)[nH]c2c(Cl)cc3c(c21)CN(CC(F)(F)F)C(=O)[C@H](CC(=O)N1CCC(N2CCc4ccccc4NC2=O)CC1)C3 ?
22

Thanks! And Cn1c(=O)[nH]c2c(Cl)cc3c(c21)CN(CC(F)(F)F)C(=O)[C@H](CC(=O)N1CCC(N2CCc4ccccc4NC2=O)CC1)C3 ?
35

Please answer likewise for O=C(C[C@@H]1Cc2cc(Cl)c3[nH]c(=O)[nH]c3c2CN(CC(F)(F)F)C1=O)N1CCC(N2CCc3ccccc3NC2=O)CC1
41

// repeat for O=C(C[C@@H]1Cc2cc(Cl)c3[nH]c(=O)n(CC(F)(F)F)c3c2CN(CC(F)(F)F)C1=O)N1CCC(N2CCc3ccccc3NC2=O)CC1 and report
54

Same again, this time with O=C(C[C@@H]1Cc2cc(Cl)c3[nH]ccc3c2CN(CC(F)(F)F)C1=O)N1CCC(N2CCc3ccccc3NC2=O)CC1
0.8

Quick one: O=C(C[C@@H]1Cc2cc(Cl)c3[nH]c(=O)oc3c2CN(CC(F)(F)F)C1=O)N1CCC(n2c(=O)[nH]c3ncccc32)CC1
64

====

Please respond with reported Papp for every item in the list.
assay: Permeability of compound at pH 7.4 by PAMPA assay; format: ADME; conditions: read-out: permeability
Report the figure along with its unit, number first.

Dear colleague, I am looking for the recorded Papp of the following compound: O=C(C[C@@H]1Cc2cc(Cl)c3c(c2CN(CC(F)(F)F)C1=O)C(F)(F)C(=O)N3)N1CCC(n2c(=O)[nH]c3ncccc32)CC1
8.7 ×10⁻⁶ cm/s

Could you do the same for Cn1c(=O)[nH]c2c(Cl)cc3c(c21)CN(CC(F)(F)F)C(=O)[C@H](CC(=O)N1CCC(N2CCc4ccccc4NC2=O)CC1)C3 , please?
19.2 ×10⁻⁶ cm/s

Can you check O=C(C[C@@H]1Cc2cc(Cl)c3[nH]c(=O)n(CC(F)(F)F)c3c2CN(CC(F)(F)F)C1=O)N1CCC(n2c(=O)[nH]c3ncccc32)CC1 next?
2.3 ×10⁻⁶ cm/s

====

Assign remaining at 10 min to each entry below.
experiment: Microsomal stability in rat microsomes assessed as parent compound remaining at […] measured after 10 mins; assay type: ADME, Microsome; conditions: read-out: Stabilty

# lookup: remaining at 10 min of O=C(C[C@@H]1Cc2cc(Cl)c3[nH]cnc3c2CN(CC(F)(F)F)C1=O)N1CCC(N2CCc3ccccc3NC2=O)CC1
7%

Also O=C(C[C@@H]1Cc2cc(Cl)c3[nH]nnc3c2CN(CC(F)(F)F)C1=O)N1CCC(n2c(=O)[nH]c3ncccc32)CC1 , if possible.
90%

Record: N#Cc1c[nH]c2c(Cl)cc3c(c12)CN(CC(F)(F)F)C(=O)[C@H](CC(=O)N1CCC(N2CCc4ccccc4NC2=O)CC1)C3
11%

What would you report for Cn1c(=O)[nH]c2c(Cl)cc3c(c21)CN(CC(F)(F)F)C(=O)[C@H](CC(=O)N1CCC(N2CCc4ncccc4NC2=O)CC1)C3 ?
56%

// query: O=C(C[C@@H]1Cc2cc(Cl)c3[nH]c(=O)n(CC(F)(F)F)c3c2CN(CC(F)(F)F)C1=O)N1CCC(n2c(=O)[nH]c3ncccc32)CC1
90%

Try the compound NC(=O)c1c[nH]c2c(Cl)cc3c(c12)CN(CC(F)(F)F)C(=O)[C@H](CC(=O)N1CCC(n2c(=O)[nH]c4ncccc42)CC1)C3
80%

Subsequent entry: O=C(C[C@@H]1Cc2cc(Cl)c3c(c2CN(CC(F)(F)F)C1=O)C(F)(F)C(=O)N3)N1CCC(n2c(=O)[nH]c3ncccc32)CC1
82%
